FYI, the data here is from paper PMC9022596.

system: Staphylococcus aureus PB0805; construct: PB0805; assay: microbe, parasite or virus in culture; parameters: Broth microdilution MIC in cation-adjusted MHB-Ca2+, growth inhibition per EUCAST reading; conditions: PB0805, 16 h, replicate 1
parameter.measured: MIC
Note to self: number, then unit, no commentary.

Exam item: Can you look up the measured MIC of `CN[C@H](CC(C)C)C(=O)N[C@H]1C(=O)N[C@@H](CC(N)=O)C(=O)N[C@H]2C(=O)N[C@H]3C(=O)N[C@H](C(=O)N[C@H](C(=O)O)c4cc(O)cc(O)c4-c4cc3ccc4O)[C@H](O)c3ccc(c(Cl)c3)Oc3cc2cc(c3O[C@@H]2O[C@H](CO)[C@@H](O)[C@H](O)[C@H]2O[C@H]2C[C@](C)(N)[C@H](O)[C@H](C)O2)Oc2ccc(cc2Cl)[C@H]1O` for me?
Marked response: 1 µg/mL

Exam item: Can you look up the measured MIC of `CCCCCCCCCC(=O)N[C@@H](Cc1c[nH]c2ccccc12)C(=O)N[C@H](CC(N)=O)C(=O)N[C@@H](CC(=O)O)C(=O)N[C@@H]1C(=O)NCC(=O)N[C@@H](CCCN)C(=O)N[C@@H](CC(=O)O)C(=O)N[C@H](C)C(=O)N[C@@H](CC(=O)O)C(=O)NCC(=O)N[C@H](CO)C(=O)N[C@@H]([C@H](C)CC(=O)O)C(=O)N[C@@H](CC(=O)c2ccccc2N)C(=O)O[C@@H]1C` for me?
Marked response: 1 µg/mL

Exam item: Can you look up the measured MIC of `CC(=O)NC[C@H]1CN(c2ccc(N3CCOCC3)c(F)c2)C(=O)O1` for me?
Marked response: 4 µg/mL

Exam item: Can you look up the measured MIC of `CCO/N=C(\C(=O)N[C@@H]1C(=O)N2C(C(=O)[O-])=C(Sc3nc(-c4cc[n+](C)cc4)cs3)CS[C@H]12)c1nsc(N)n1` for me?
Marked response: 0.5 µg/mL
